- subject-of-test: Hexose transporter 1 (Plasmodium falciparum) (UniProt O97467)
- assay-explanation: ST_JUDE_LEISH: Cytotoxicity at 2uM final concentration against transgenic Leishmania Mexicana promastigotes LmPfHT that are glucose transport deficient and complemented with the Plasmodium falciparum hexose transporter. Activity is measured by DNA content using SYBR green in vitro
- Format: functional
measured-parameter: inhibition
Write down the value, and be sure its unit follows.

# example entries with known answers
molecule: N#Cc1c(N2CCN(c3ccc(F)cc3)CC2)nc(N)c2c(N)nc3c(c12)CC(=O)N3C1CC1
subject-of-test: Hexose transporter 1 (Plasmodium falciparum) (UniProt O97467)
reading: 5.18%
--
molecule: CC(C)(CNC(=O)/C=C/c1ccc(C(F)(F)F)cc1)CNc1cc(=O)c2ccccc2[nH]1
subject-of-test: Hexose transporter 1 (Plasmodium falciparum) (UniProt O97467)
reading: -1.76%
--
molecule: Cc1ccc(-c2nnc3c4ccccc4c(C)nn23)cc1S(=O)(=O)N1CCN(CCO)CC1
subject-of-test: Hexose transporter 1 (Plasmodium falciparum) (UniProt O97467)
reading: 0.96%

Problem: Query (molecule): Cc1ccc(C(=O)Nc2ccc(C)c(OC3CCN(Cc4ccco4)C3)c2)cc1 (stereo not drawn) ; field requested: inhibition
Solution: 1.86%

Problem: Query (molecule): O=C(Nc1cccc(C(F)(F)F)c1)c1ccc(S(=O)(=O)NC2CCN(CC3CCCCC3)C2)cc1 (stereo not drawn) ; field requested: inhibition
Solution: 3.31%

Problem: Query (molecule): COc1ccc(NC(=O)[C@H](Cc2ccccc2)Nc2cc(C)nc(Nc3ccccc3)n2)cc1 ; field requested: inhibition
Solution: 14.5%

Problem: Query (molecule): COc1ccc2nccc([C@@H](O)CN3CCC(NCc4ccc5nnsc5c4)CC3)c2c1 ; field requested: inhibition
Solution: 0.44%

Problem: Query (molecule): CC(C)(C)c1ccc(CN(C[C@@H](O)CNS(=O)(=O)c2cc(Cl)cc(Cl)c2)C(C)(C)C)cc1 ; field requested: inhibition
Solution: 0.36%

Problem: Query (molecule): O=C(NCc1cccc2ccccc12)C1CCCN(C(=O)c2ccc(O)c(-c3ccc(Cl)c(Cl)c3)c2)C1 (stereo not drawn) ; field requested: inhibition
Solution: 1.11%

Problem: Query (molecule): Cc1cccnc1Nc1nc(-c2ccccn2)cs1 ; field requested: inhibition
Solution: 73.2%

Problem: Query (molecule): COc1ccc2nccc([C@@H](O)CN3CCC(NC(=O)c4cc5c(F)cc(F)cc5[nH]4)CC3)c2c1 ; field requested: inhibition
Solution: 20.8%

Problem: Query (molecule): NCC(=O)Nc1cccc(Nc2nccc(-c3c(-c4cccc(NC(=O)c5ccccc5)c4)nn4ccccc34)n2)c1 ; field requested: inhibition
Solution: 7.49%

Problem: Query (molecule): O=C(NC(Nc1ccc([N+](=O)[O-])cc1)C(Cl)(Cl)Cl)c1ccc(Cl)cc1 (stereo not drawn) ; field requested: inhibition
Solution: -3.03%

Problem: Query (molecule): c1cc(CNCCc2ccncc2)cc(-c2ccc(-c3nc4ccccc4[nH]3)s2)c1 ; field requested: inhibition
Solution: -0.86%

Problem: Query (molecule): CCN(CC)CCN(Cc1ccc(-c2ccc(C(F)(F)F)cc2)cc1)C(=O)Cn1c(CCc2cccc(F)c2F)c(C)c(=O)c2ccccc21 ; field requested: inhibition
Solution: 1.5%

====

Recorded inhibition values for a group of compounds are listed next.
- subject-of-test: Solute carrier family 2, facilitated glucose transporter member 1 (Homo sapiens)
- assay-explanation: ST_JUDE_LEISH: Cytotoxicity at 2uM final concentration against transgenic Leishmania Mexicana promastigotes LmGLUT1 that are glucose transport deficient and complemented with the human glucose transporter GLUT1. Activity is measured by DNA content using SYBR green in vitro
- Format: functional
Write the number in % without appending the unit.

compound: O=[N+]([O-])c1cccc(Nc2nccc(-c3cnn4ncccc34)n2)c1
unit-name: %
inhibition: 83

compound: O=C(O)CCSc1ncnc2[nH]cnc12
unit-name: %
inhibition: -2.53

compound: Clc1ccc(-c2[nH]c3ccccc3c2CN2CCC(N3CCCCC3)CC2)cc1
unit-name: %
inhibition: 15.2

compound: Cc1cccc(Nc2nccc(NCC(O)c3ccc(C(F)(F)F)cc3)n2)c1 (stereo unspecified)
unit-name: %
inhibition: 10.6

compound: Cc1ccc(-c2ccc(Cl)cc2Oc2cnc(N)nc2N)o1
unit-name: %
inhibition: 1.95

Proceeding to the next compound to report its inhibition.
Problem: Query (compound): CC1(CCc2ccccc2)N=C(N)N(Cc2ccccc2)C(=O)C1c1ccc(Cl)c(Cl)c1 (stereo unspecified) ; field requested: inhibition
Solution: 3.32

====

- subject-of-test: Hexose transporter 1 (Plasmodium falciparum) (UniProt O97467)
- assay-explanation: ST_JUDE_LEISH: Cytotoxicity at 2uM final concentration against transgenic Leishmania Mexicana promastigotes LmPfHT that are glucose transport deficient and complemented with the Plasmodium falciparum hexose transporter. Activity is measured by DNA content using SYBR green in vitro
- Assay type: functional
measured-parameter: inhibition (%)
Write the number in % without appending the unit.

# example entries with known answers
compound: CC(C)(NCc1ccc(OC(F)(F)F)cc1)c1nc(-c2ccc(Cl)c(O)c2)c(-c2ccncc2)[nH]1
unit-name: %
reading: -0.36

compound: O=C(C=Cc1ccc(Cl)c(Cl)c1)NCCCCCN1CCC(CCCNC(=O)c2ccc3c(c2)OCO3)CC1
unit-name: %
reading: 4.24

compound: Cc1nc(-c2ccc(-c3ccc(C(=O)Nc4ccc(I)c(OCCN5CCCC5)c4)cc3)c(C)c2)no1
unit-name: %
reading: 3.48

compound: Cc1ccc2c(O)c([N+](=O)[O-])c(O)nc2c1
unit-name: %
reading: 1.03

Problem: What inhibition appears in the records for this compound with Hexose transporter 1 (Plasmodium falciparum) (UniProt O97467)? O=C1OC(c2ccccc2)(c2ccccn2)CN1C1CCN(Cc2cccn2-c2ccc(Cl)cc2)CC1 (stereo not given)
Solution: 1.43

Problem: What inhibition appears in the records for this compound with Hexose transporter 1 (Plasmodium falciparum) (UniProt O97467)? OC(CNCCCCCCNCC(O)c1ccc(Cl)c(Cl)c1)c1ccc(Cl)c(Cl)c1 (stereo not given)
Solution: 4.69

Problem: What inhibition appears in the records for this compound with Hexose transporter 1 (Plasmodium falciparum) (UniProt O97467)? O=C(Nc1ccc(OC2CCN(Cc3ccc(F)cc3)CC2)c(Cl)c1)c1ccoc1
Solution: 2.09

Problem: What inhibition appears in the records for this compound with Hexose transporter 1 (Plasmodium falciparum) (UniProt O97467)? Clc1ccc(CCNCCCCCCNCCc2ccc3c(c2)OCO3)cc1
Solution: 8.53

Problem: What inhibition appears in the records for this compound with Hexose transporter 1 (Plasmodium falciparum) (UniProt O97467)? CCn1cnc2c(N3CCCC3=O)cc(C(=O)N[C@@H](Cc3ccccc3)[C@H](O)CNC3CCCCC3)cc21
Solution: 1.91

Problem: What inhibition appears in the records for this compound with Hexose transporter 1 (Plasmodium falciparum) (UniProt O97467)? CCOC(=O)c1ccc(NC(=O)Nc2cccc(-c3ccc(-c4nc5cc(C(F)(F)F)ccc5[nH]4)cc3)c2)cc1
Solution: 1.53

Problem: What inhibition appears in the records for this compound with Hexose transporter 1 (Plasmodium falciparum) (UniProt O97467)? Cc1cc(Cl)ccc1NC(=O)Nc1ccc2nccc(N3CCN(C)CC3)c2c1
Solution: 6.28

Problem: What inhibition appears in the records for this compound with Hexose transporter 1 (Plasmodium falciparum) (UniProt O97467)? Cc1ccc(NC(=O)c2cccc(CN3CCCN(Cc4cccc(O)c4)CC3)c2)cc1F
Solution: 8.09

Problem: What inhibition appears in the records for this compound with Hexose transporter 1 (Plasmodium falciparum) (UniProt O97467)? O=C(Nc1ccc(OC2CCN(Cc3ccsc3)C2)c(Cl)c1)c1ccsc1 (stereo not given)
Solution: 2.64

Problem: What inhibition appears in the records for this compound with Hexose transporter 1 (Plasmodium falciparum) (UniProt O97467)? CC(C)CNCc1ccc(-c2cccc(CN(CCN(C)C)C(=O)NCCc3ccccc3)c2)cc1
Solution: 1.83

====

Recorded inhibition values for a group of compounds are listed next.
- subject-of-test: Solute carrier family 2, facilitated glucose transporter member 1 (Homo sapiens)
- assay-explanation: ST_JUDE_LEISH: Cytotoxicity at 2uM final concentration against transgenic Leishmania Mexicana promastigotes LmGLUT1 that are glucose transport deficient and complemented with the human glucose transporter GLUT1. Activity is measured by DNA content using SYBR green in vitro
- Assay type: functional
Write the number in % without appending the unit.

compound: CN(C)c1cccc2c(S(=O)(=O)Nc3cccc(CCN4CCC(N5CCCCC5)CC4)c3)cccc12
inhibition (%): 0.3
--
compound: CC1=C(C(=O)OC(C)C)C(c2ccccc2Cl)C2=C(CC(c3ccccc3)CC2=O)N1 (centres undefined)
inhibition (%): 7.11
--
compound: O=C(CN1CCC2(CCC1=O)CC(=O)c1ccccc1O2)NCCN1CCOCC1 (centres undefined)
inhibition (%): 2.45

Problem: Query (compound): O=C(NCCN1CCC(c2ccncc2)CC1)c1ccc(Nc2nccc(Nc3ccc(Oc4ccccc4)cc3)n2)cc1 ; field requested: inhibition
Solution: -0.62

Problem: Query (compound): CC(C)(C)C1CCc2onc(C(=O)Nc3cc(Cl)ccc3O)c2C1 (centres undefined) ; field requested: inhibition
Solution: 7.15

Problem: Query (compound): O[C@H]1[C@H](OCc2ccc(-c3ccccc3)cc2)CC[C@@H]1N1CCCCC1 ; field requested: inhibition
Solution: 0.73

Problem: Query (compound): CCNc1cc(C(=O)N[C@@H](Cc2ccccc2)[C@H](O)CNCc2cccc(-n3ccnc3)c2)cc(N2CCCC2=O)c1 ; field requested: inhibition
Solution: -1.37

Problem: Query (compound): CN(C)C1CCN(CC#Cc2cc3ncnc(Nc4ccc(OCc5cccc(F)c5)c(Cl)c4)c3s2)CC1 ; field requested: inhibition
Solution: 1.79

Problem: Query (compound): N=C(N)c1ccc(NCc2cccc(C(=O)O)c2)cc1 ; field requested: inhibition
Solution: 1.02
